The origin of these recorded values is patent US4698352A.

Parameter MIC: see the listing below.
Tested on: Ps. aeruginosa GN918**
Experiment: Antibacterial activity (MIC), agar dilution
Assay type: cell-based
Settings: Pseudomonas aeruginosa, GN918, 20 h, Ps. aeruginosa GN918, cephalospolinase-producing; 10^6 cells per ml
Quick note: number first, unit second.

{"compound": "O=C(O)c1cn(-c2ccc(O)cc2)c(-c2ccc(-n3cccc3)cc2)cc1=O", "targetSystem": "Ps. aeruginosa GN918**", "value": "1.56 µg/mL"}
{"compound": "Cc1cc(O)ccc1-n1cc(C(=O)O)c(=O)cc1C1CCCC1", "targetSystem": "Ps. aeruginosa GN918**", "value": "3.13 µg/mL"}
{"compound": "Cc1cc(O)ccc1-n1cc(C(=O)O)c(=O)cc1-c1ccccc1", "targetSystem": "Ps. aeruginosa GN918**", "value": "1.56 µg/mL"}
{"compound": "Cc1cc(O)ccc1-n1cc(C(=O)O)c(=O)cc1-c1ccc2c(c1)NCCN2C", "targetSystem": "Ps. aeruginosa GN918**", "value": "3.13 µg/mL"}

MIC reading for CN1CCCc2cc(-c3cc(=O)c(C(=O)O)cn3-c3ccc(O)cc3)ccc21 : 3.13 µg/mL

MIC reading for COc1ccc(-c2cc(=O)c(C(=O)O)cn2-c2ccc(O)cc2C)cc1F : 1.56 µg/mL

MIC reading for O=C(O)c1cn(-c2ccc(O)cc2)c(-c2ccc(N3CCCC3)cc2)cc1=O : 1.56 µg/mL

MIC reading for Cc1nc(-c2ccc(-c3cc(=O)c(C(=O)O)cn3-c3ccc(F)cc3)cc2)cs1 : 3.13 µg/mL

MIC reading for CN(C)c1ccc(-c2cc(=O)c(C(=O)O)cn2-c2cccc3c(O)cccc23)cc1 : 6.25 µg/mL

MIC reading for O=C(O)c1cn(-c2ccc(O)cc2)c(C2CC=CCC2)cc1=O (stereo not shown) : 1.56 µg/mL

###

Test system: Pro. vulgaris GN3027
Assay: Antibacterial activity (MIC), agar dilution
Type: cell-based
Details: Proteus vulgaris, GN3027, 20 h, Pro. vulgaris GN3027; 10^6 cells per ml; 37° C., 20 hours; read-out: MIC
resultType: MIC (µg/mL)
Answer format: numeric, µg/mL implied, no suffix.

As a guide, the following entries are already answered.
{"compound": "CC=Cc1cc(=O)c(C(=O)O)cn1-c1ccc(O)cc1C", "MIC / µg/mL": 0.39}
{"compound": "COc1ccc(-c2cc(=O)c(C(=O)O)cn2-c2ccc(O)cc2C)cc1F", "MIC / µg/mL": 0.1}
{"compound": "Cc1nc2cc(-c3cc(=O)c(C(=O)O)cn3-c3ccc(O)cc3)ccc2s1", "MIC / µg/mL": 0.39}
{"compound": "CC(=O)Oc1ccc(-n2cc(C(=O)OCCN(C)C)c(=O)cc2-c2ccc(N(C)C)cc2)cc1 [drawing 37]", "MIC / µg/mL": 0.39}
{"compound": "COc1ccc(-c2cc(=O)c(C(=O)O)cn2-c2ccc(F)cc2)cc1", "MIC / µg/mL": 0.39}
{"compound": "O=C(O)c1cn(-c2ccc(O)cc2)c(-c2ccc(-n3cccn3)cc2)cc1=O", "MIC / µg/mL": 0.39}

MIC reading for O=C(O)c1cn(-c2ccc(O)cc2)c(-c2ccc(-n3cccc3)cc2)cc1=O : 0.2

MIC reading for CN(C)c1ccc(-c2cc(=O)c(C(=O)O)cn2-c2ccc(O)cc2)cc1 [drawing 206] : 0.1

MIC reading for CC(=O)Oc1ccc(-n2cc(C(=O)O)c(=O)cc2-c2cc3ccccc3o2)cc1 : 0.39

###

Parameter log10 MIC: see the listing below.
System: Kl. pneumoniae Y-4*
Assay: Antibacterial activity (MIC), agar dilution
Format: cell-based
Conditions: Klebsiella pneumoniae, 20 h, Kl. pneumoniae Y-4, penicillinase-producing; 10^6 cells per ml; read-out: MIC
Use the decimal logarithm of MIC (µg/mL).

As a guide, the following entries are already answered.
{"compound": "O=C(O)c1cn(-c2ccc(F)cc2)c(C=Cc2cccnc2)cc1=O [drawing 205]", "log10 MIC": 0.80}
{"compound": "CC=Cc1cc(=O)c(C(=O)O)cn1-c1ccc(O)cc1C", "log10 MIC": 1.40}

log10 MIC reading for CN(C)c1ccc(-c2cc(=O)c(C(=O)O)cn2-c2ccccc2F)cc1 : 1.40

log10 MIC reading for Cc1cc(O)ccc1-n1cc(C(=O)O)c(=O)cc1-c1ccc2c(c1)NCCN2C : 0.80

log10 MIC reading for Cc1nc(-c2ccc(-c3cc(=O)c(C(=O)O)cn3-c3ccc(F)cc3)cc2)cs1 : 1.40

###

Parameter MIC: see the listing below.
System: Kl. pneumoniae Y-4*
Assay: Antibacterial activity (MIC), agar dilution
Assay type: cell-based
Details: Klebsiella pneumoniae, 20 h, Kl. pneumoniae Y-4, penicillinase-producing; 10^6 cells per ml; read-out: MIC
Answer format: numeric, µg/mL implied, no suffix.

As a guide, the following entries are already answered.
{"compoundSmiles": "Nc1ccc(-c2cc(=O)c(C(=O)O)cn2-c2ccc(F)cc2)cc1", "resultType": "MIC", "displayUnit": "µg/mL", "value": 6.25}
{"compoundSmiles": "O=C(O)c1cn(-c2ccc(F)cc2)c(-c2cc3ccccc3s2)cc1=O", "resultType": "MIC", "displayUnit": "µg/mL", "value": 12.5}
{"compoundSmiles": "COc1ccc(-c2cc(=O)c(C(=O)O)cn2-c2ccc(O)cc2C)cc1", "resultType": "MIC", "displayUnit": "µg/mL", "value": 0.78}
{"compoundSmiles": "O=C(O)c1cn(-c2ccc(O)cc2F)c(-c2ccc(N3CCCC3)cc2)cc1=O", "resultType": "MIC", "displayUnit": "µg/mL", "value": 3.13}
{"compoundSmiles": "CN(C)c1ccc(-c2cc(=O)c(C(=O)O)cn2-c2ccc(F)cc2O)cc1", "resultType": "MIC", "displayUnit": "µg/mL", "value": 6.25}
{"compoundSmiles": "CC(=O)Oc1ccc(-n2cc(C(=O)O)c(=O)cc2-c2ccc(N(C)C)cc2)c(C)c1", "resultType": "MIC", "displayUnit": "µg/mL", "value": 1.56}
{"compoundSmiles": "Cc1nc(-c2ccc(-c3cc(=O)c(C(=O)O)cn3-c3ccc(O)cc3C)cc2)cs1", "resultType": "MIC", "displayUnit": "µg/mL", "value": 1.56}
{"compoundSmiles": "COCOC(=O)c1cn(-c2ccc(O)cc2)c(-c2ccc(N(C)C)cc2)cc1=O", "resultType": "MIC", "displayUnit": "µg/mL", "value": 3.13}

MIC reading for O=C(O)c1cn(-c2ccc(F)cc2)c(-c2ccc(Br)s2)cc1=O : 25

MIC reading for Cc1cc(O)ccc1-n1cc(C(=O)O)c(=O)cc1-c1ccc(-c2cccs2)cc1 : 0.78

###

System: Kl. pneumoniae Y-4*
Assay: Antibacterial activity (MIC), agar dilution
Format: cell-based
Details: Klebsiella pneumoniae, 20 h, Kl. pneumoniae Y-4, penicillinase-producing; 10^6 cells per ml; read-out: MIC
Parameter log10 MIC: see the listing below.
Use the decimal logarithm of MIC (µg/mL).

As a guide, the following entries are already answered.
{"molecule": "CN1CCCc2cc(-c3cc(=O)c(C(=O)O)cn3-c3ccc(O)cc3)ccc21", "targetSystem": "Kl. pneumoniae Y-4*", "log10 MIC": 0.80}
{"molecule": "Cc1nc2ccc(-c3cc(=O)c(C(=O)O)cn3-c3ccc(O)cc3)cc2s1", "targetSystem": "Kl. pneumoniae Y-4*", "log10 MIC": 0.50}
{"molecule": "O=C(O)c1cn(-c2ccc(O)cc2F)c(-c2cc3ccccc3s2)cc1=O", "targetSystem": "Kl. pneumoniae Y-4*", "log10 MIC": 0.19}
{"molecule": "CC(=O)Oc1ccc(-n2cc(C(=O)OCC(O)CO)c(=O)cc2-c2ccc(N(C)C)cc2)cc1 (stereo not shown)", "targetSystem": "Kl. pneumoniae Y-4*", "log10 MIC": 1.40}
{"molecule": "O=C(O)c1cn(-c2ccc(F)cc2)c(/C=C/c2ccccc2)cc1=O", "targetSystem": "Kl. pneumoniae Y-4*", "log10 MIC": 1.40}

log10 MIC reading for Cc1ccc(-c2ccc(-c3cc(=O)c(C(=O)O)cn3-c3ccc(O)cc3)cc2)s1 : 0.19

log10 MIC reading for Cc1cc(O)ccc1-n1cc(C(=O)O)c(=O)cc1/C=C/c1ccccc1 : 0.50

log10 MIC reading for Cc1cc(O)ccc1-n1cc(C(=O)O)c(=O)cc1-c1ccccc1 : 0.19

log10 MIC reading for CC(=O)Oc1ccc(-n2cc(C(=O)O)c(=O)cc2-c2cc3ccccc3s2)c(F)c1 : 0.50

log10 MIC reading for O=C(O)c1cn(-c2ccc(O)cc2)c(-c2cc3ccccc3s2)cc1=O : -0.11

###

Parameter MIC: see the listing below.
System: Pro. vulgaris GN3027
Test: Antibacterial activity (MIC), agar dilution
Type: cell-based
Settings: Proteus vulgaris, GN3027, 20 h, Pro. vulgaris GN3027; 10^6 cells per ml; 37° C., 20 hours; read-out: MIC
Answer format: numeric, µg/mL implied, no suffix.

As a guide, the following entries are already answered.
{"molecule": "Cc1nc(-c2ccc(-c3cc(=O)c(C(=O)O)cn3-c3ccc(F)cc3)cc2)cs1", "targetSystem": "Pro. vulgaris GN3027", "MIC [µg/mL]": 1.56}
{"molecule": "CC1Cc2cc(-c3cc(=O)c(C(=O)O)cn3-c3ccc(O)cc3)ccc2O1 (stereo not drawn)", "targetSystem": "Pro. vulgaris GN3027", "MIC [µg/mL]": 0.78}
{"molecule": "O=C(O)c1cn(-c2ccc(F)cc2)c(/C=C/c2ccccc2)cc1=O", "targetSystem": "Pro. vulgaris GN3027", "MIC [µg/mL]": 0.78}

MIC reading for CN1CCc2cc(-c3cc(=O)c(C(=O)O)cn3-c3ccc(O)cc3)ccc21 : 0.2

MIC reading for Cc1nc(-c2ccc(-c3cc(=O)c(C(=O)O)cn3-c3ccc(F)cc3)cc2)co1 : 0.39

MIC reading for O=C(O)c1cn(-c2ccc(O)cc2)c(C2CC=CCC2)cc1=O (stereo not drawn) : 0.39

MIC reading for Cn1ccc2cc(-c3cc(=O)c(C(=O)O)cn3-c3ccc(O)cc3)ccc21 : 0.1

MIC reading for CNc1ccc(-c2cc(=O)c(C(=O)O)cn2-c2ccc(F)cc2)cc1C : 0.78

MIC reading for CN1CCOc2cc(-c3cc(=O)c(C(=O)O)cn3-c3ccc(O)cc3)ccc21 : 0.39

MIC reading for Cc1cc(O)ccc1-n1cc(C(=O)O)c(=O)cc1/C=C/c1ccccc1 : 0.1

MIC reading for O=C(O)c1cn(-c2ccc(O)cc2F)c(C2CC=CCC2)cc1=O (stereo not drawn) : 0.1

MIC reading for O=C(O)c1cn(-c2ccc(O)cc2)c(-c2ccc(-c3ccc(O)cc3)s2)cc1=O : 0.39

MIC reading for CN(C)c1ccc(-c2cc(=O)c(C(=O)O)cn2-c2cccc(O)c2)cc1 : 0.2

MIC reading for CC(=O)Oc1ccc(-n2cc(C(=O)O)c(=O)cc2-c2ccc(N(C)C)cc2)cc1 : 0.1

MIC reading for Cc1cc(O)ccc1-n1cc(C(=O)O)c(=O)cc1-c1ccc2c(ccn2C)c1 : 0.1
